tested on: platelets (human PRP); assay: Arachidonic acid-induced platelet aggregation (method of Born); type: cell-based; conditions: Homo sapiens, Platelet, human PRP; 10^-5 M inhibitor; 500 μM arachidonate
attribute-measured: inhibition at 10 µM (%)
Field: numeric (%). Do not append units.

Prompt: What measured inhibition at 10 µM goes with CCCCCCCCN[C@@H]1CCC[C@H]1CCCCCCC(=O)O (relative stereo) [Example 6 trans, trans-13-aza-20-homoprostanoic acid] ?
Completion: 0

Prompt: What measured inhibition at 10 µM goes with CCCCCCN[C@@H]1CCC[C@H]1CCCCCCC(=O)O (relative stereo) [Example 5 trans, trans-13-aza-20-norprostanoic acid] ?
Completion: 0

Prompt: What measured inhibition at 10 µM goes with O=C(O)CCCCCC[C@@H]1CCC[C@H]1NCc1ccccc1 (relative stereo) [Example 3 trans] ?
Completion: 0
